# TARGET_OR_TEST_SYSTEM: T1, TMEV 2A (Theiler's murine encephalomyelitis …, UniProt P08545 923-1055)
# T1 sequence: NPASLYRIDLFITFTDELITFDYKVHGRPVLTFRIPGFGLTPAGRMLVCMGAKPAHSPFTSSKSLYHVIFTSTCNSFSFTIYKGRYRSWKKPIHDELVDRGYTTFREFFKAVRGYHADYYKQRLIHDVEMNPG
# ASSAY_INFO: ITC; 400 mM NaCl; ~1:1 stoichiometry; EMSA: 10 mM Tris pH 7.4, ~140 mM NaCl, 2 mM Mg acetate, 1 mM DTT, 5% glycerol, tRNA, 50 nM RNA, 37 C 20 min; MST: buffer stated as 1x of 20 mM Tris pH 7.4/80 mM NaCl/4 mM Mg acetate/2 mM DTT (2x), ~140 mM NaCl final, 5 nM RNA, 25 C; ITC: 50 mM Tris pH 7.4, 400 mM NaCl, 25 C
# CONDITION_CONTEXT: protein: recombinant; tags: GST cleaved (3C protease); N-terminal GPLGS remnant; label: 5' Cy5 (EMSA, MST); none (ITC, SEC-MALS); stem-loop/pseudoknot-like
PROPERTY: Kd (nM)
Give just the numeric value; nM need not be written.

Tell me the measured Kd of CCACAAGGUGCGGUGCUAACUAAAUCCCUAGCACCCC (structured_RNA) [TMEV 6] , please.
67
